Below, each of the compounds is paired with its reported IC50 value.
Biological target: human TLR9 (Homo sapiens (Human))
Sequence (Q9NR96 26-1032): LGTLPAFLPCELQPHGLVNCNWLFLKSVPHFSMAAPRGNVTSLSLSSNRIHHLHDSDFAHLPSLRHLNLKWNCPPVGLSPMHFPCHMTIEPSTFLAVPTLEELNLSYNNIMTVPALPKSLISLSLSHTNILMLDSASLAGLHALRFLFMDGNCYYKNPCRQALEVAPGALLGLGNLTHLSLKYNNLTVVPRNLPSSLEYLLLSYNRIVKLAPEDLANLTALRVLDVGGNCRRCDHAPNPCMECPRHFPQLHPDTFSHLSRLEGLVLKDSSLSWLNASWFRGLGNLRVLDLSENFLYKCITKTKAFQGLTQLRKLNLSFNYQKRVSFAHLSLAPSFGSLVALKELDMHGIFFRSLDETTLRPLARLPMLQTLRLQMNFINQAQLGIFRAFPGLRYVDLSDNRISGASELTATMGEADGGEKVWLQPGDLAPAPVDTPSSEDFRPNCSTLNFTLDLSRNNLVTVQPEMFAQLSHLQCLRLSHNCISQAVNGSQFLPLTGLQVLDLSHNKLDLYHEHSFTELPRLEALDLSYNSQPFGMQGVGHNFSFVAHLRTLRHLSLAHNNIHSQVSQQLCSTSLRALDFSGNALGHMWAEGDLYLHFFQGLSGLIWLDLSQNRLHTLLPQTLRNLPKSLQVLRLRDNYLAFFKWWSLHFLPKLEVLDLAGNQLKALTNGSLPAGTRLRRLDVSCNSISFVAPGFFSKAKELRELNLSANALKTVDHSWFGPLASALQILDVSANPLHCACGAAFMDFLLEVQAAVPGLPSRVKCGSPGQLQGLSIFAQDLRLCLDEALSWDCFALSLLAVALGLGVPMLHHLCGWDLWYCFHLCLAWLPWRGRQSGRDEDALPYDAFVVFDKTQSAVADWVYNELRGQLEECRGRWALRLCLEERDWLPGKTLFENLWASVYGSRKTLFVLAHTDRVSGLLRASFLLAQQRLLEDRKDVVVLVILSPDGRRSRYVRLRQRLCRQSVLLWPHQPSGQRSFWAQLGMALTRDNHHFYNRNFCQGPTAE
Assay: TLR9 inhibition reporter assay (HEK-Blue cells, SEAP reporter, ODN2006 stimulation)
Conditions: read-out: TLR9 IC50, HEK-Blue cells overexpressing human TLR9, ODN2006 5 nM
Express it in nM; write the number only.

# count of solved cases: 8
COMPOUND	TARGET OR TEST SYSTEM	IC50 / nM
Cc1cc(-c2[nH]c3ccc(C4CCN(C(=O)CN(C)C)CC4)cc3c2C(C)C)cc(C)n1	human TLR9 (Homo sapiens (Human))	579
Cc1cc(-c2[nH]c3ccc(C4CCN(C(=O)C(F)(F)F)CC4)cc3c2C(C)C)ccn1	human TLR9 (Homo sapiens (Human))	17500
Cc1cc(-c2[nH]c3ccc(C4CCNCC4)cc3c2C(C)C)cc(F)n1	human TLR9 (Homo sapiens (Human))	1890
Cc1cc(-c2[nH]c3ccc(C4CCN(C5CCOCC5)CC4)cc3c2C(C)C)cc(C)n1	human TLR9 (Homo sapiens (Human))	572
Cc1cc(-c2[nH]c3ccc(C4CCN(CC(=O)N5CCC(F)CC5)CC4)cc3c2C(C)C)cc(C)n1	human TLR9 (Homo sapiens (Human))	248
Cc1cc(-c2[nH]c3ccc(C4CCN(Cc5ncco5)CC4)cc3c2C(C)C)c(C)cn1	human TLR9 (Homo sapiens (Human))	40300
Cc1cc(-c2[nH]c3ccc(C4CCN(C(=O)CN(CCO)C(C)C)CC4)cc3c2C(C)C)cc(C)n1	human TLR9 (Homo sapiens (Human))	1860
Cc1cc(-c2[nH]c3ccc(C4CCN(CC5(C)COC5)CC4)cc3c2C(C)C)cc(C)n1	human TLR9 (Homo sapiens (Human))	335

Q: Recorded IC50 of Cc1cc(-c2[nH]c3ccc(C4CCN(C(=O)CNCC5CCCO5)CC4)cc3c2C(C)C)cc(C)n1 (stereo not shown) , please.
Ans: 429

Q: Look up IC50: CNCC(=O)N1CCC(c2ccc3[nH]c(-c4cc(C)nc(C)c4)c(CC(F)F)c3c2)CC1
Ans: 258

Q: Form field: reported IC50 of Cc1cc(-c2[nH]c3ccc(C4CCN(Cc5ccn(C)n5)CC4)cc3c2C(C)C)c(C)cn1
Ans: 1440

Q: Which IC50 value is on record for Cc1cc(-c2[nH]c3ccc(C4CCN(CC(=O)NC5(C)CCC5)CC4)cc3c2C(C)C)cc(C)n1 ?
Ans: 817

Q: Can you look up the measured IC50 of CC(=O)Nc1cnc(C)cc1-c1[nH]c2ccc(C3CCNCC3)cc2c1C(C)C for me?
Ans: 4610

Q: If you can, please state the reported IC50 value of Cc1cc(-c2[nH]c3ccc(C4CCN(CC(=O)N5C(C)CCC5C)CC4)cc3c2C(C)C)cc(C)n1 (stereo not shown) .
Ans: 451

Q: Requested field: IC50. Item: Cc1cc(-c2[nH]c3ccc(C4CCN(CC#N)CC4)cc3c2C(C)C)cc(C)n1
Ans: 1390

---

Listed molecules paired with reported log10(IC50)
Molecular target: UniProt Q9NR96
Experiment: TLR9 inhibition reporter assay (HEK-Blue cells, SEAP reporter, ODN2006 stimulation);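 further: compounds tested over 0.05 nM to 50 µM, 22 h incubation, inhibition taken as SEAP signal drop from agonist plus DMSO wells toward a known inhibitor control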
Conditions: read-out: TLR9 IC50, HEK-Blue cells overexpressing human TLR9, ODN2006 5 nM
Please keep in mind that the values are log10 of IC50 expressed in nM.

Recorded results for 5 molecules are shown here.
MOLECULE	RECORDED MEASUREMENT
Cc1cc(-c2[nH]c3ccc(C4CCN(CC5CC5)CC4)cc3c2C(C)C)cc(C)n1 [Example 474]	2.70
CNCCN1CCC(c2ccc3[nH]c(-c4ccnc(C#N)c4)c(C)c3c2)CC1 [Example 755]	2.78
Cc1cc(-c2[nH]c3ccc(C4CCN(CCCN(C)C)CC4)cc3c2C(C)C)ccn1 [Example 669]	2.34
CNCC(=O)N1CCC(c2ccc3[nH]c(-c4cc(C5CC5)ncc4F)c(C(C)C)c3c2)CC1 [Example 518]	3.21
Cc1cc(-c2[nH]c3ccc(C4CCN(C5CCCOC5)CC4)cc3c2C(C)C)ccn1 (stereo not shown) [Example 718]	2.93

# ---- query molecule ----
Q: For the record CCc1c(-c2cc(C)nc(C)c2)[nH]c2ccc(C3CCN(C(=O)CNC)CC3)cc12 [Example 529] , what value of log10(IC50) is listed for UniProt Q9NR96?
Ans: 2.08
